- Test System: tumor necrosis factor alpha (TNFα) (human, UniProt P01375 77-233)
- Sequence (P01375 77-233 limits assumed): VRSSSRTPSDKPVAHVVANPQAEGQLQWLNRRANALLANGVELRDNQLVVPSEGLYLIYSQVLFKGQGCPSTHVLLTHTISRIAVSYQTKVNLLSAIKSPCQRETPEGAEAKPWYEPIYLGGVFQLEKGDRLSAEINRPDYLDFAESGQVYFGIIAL
- Protocol Description: affinity by IC50 ELISA (so named in paragraph 380)
Answer each item with its documented Affinity.

Example results:
Binder: MAb 1028 (antibody, V domains shown, IgG1/kappa, CHO; also called H1478/L250) VH: EVQLLESGGGLIQPGGSLRLSCAASGFTVSSNYMSWVRQAPGKGLEWVSVIYSGGRTYYADSVKGRFTISRDSSKNTLYLQMNSLRAEDTAVYYCARTYYGSTYDYWGQGTLVTVSS VL: EIVLTQSPVTLSVPPGERASLSCRASQNIYTAVAWYQQKPGQAPRLLIYGASTRATGIPARFSGGGSGTDYTLTISSLESEDFAVYHCQQYHSWPLTFGGGTKLEIK
Value Type: Affinity
Observed Result: 0.32 nM

Binder: MAb 2090 (antibody, V domains shown, IgG1/kappa, CHO; also called H1813/L472) VH: EVQLVESGGGLIQPGGSLRLSCAVSGLNVSRDYMSWVRQAPGKGLEWISVIYRIGATMYADSVKGRFTISRDTSKNTVFLQMSRLKVADTAVYYCARNYYGSTLDYWGQGTLVTVSS VL: EIVLTQSPATLSVSPGERASLSCRASQNIYTAVAWYQQKPGQAPRLLIYNAATRATGIPARFSGGGSGTDYTLTISSLESEDFAVYHCQQWHSWPLTFGGGTKLEIK
Value Type: Affinity
Observed Result: 0.02 nM

For the next question, use this binder.
INPUT: Requested read-out: Affinity. Entry: MAb 1777 (antibody, V domains shown, IgG1/kappa, CHO; also called H1684/L332) VH: EVQLVESGGGLIQPGGSLRLSCAVSGLNVSRDYMSWVRQAPGKGLEWISVIYRGGATMYADSVKGRFTISRDTSKNTVFLQMSRLKVADTAVYYCARNYYGSTIDYWGQGTLVTVSS VL: EIVLTQSPVTLSVPPGERASLSCRASQNIYTAVAWYQQKPGQAPRLLIYGASTRATGIPARFSGGGSGTDYTLTISSLESEDFAVYHCQQWHSWPLTFGGGTKLEIK
OUTPUT: 0.18 nM
